The origin of these recorded values is patent US20140271653A1.

tgt: RSV-F of RSV subtype A strain A2 (1540) (respiratory syncytial virus subtype A, …, UniProt P03420 26-574)
assay_method_text: cell-based or functional assay
recorded_endpoint: IC50 [pM] for RSV A2 Neutralization, Trial 4 (pM)

[
  {
    "binder": "Control II (motavizumab sequence) (antibody, V domains shown) VH: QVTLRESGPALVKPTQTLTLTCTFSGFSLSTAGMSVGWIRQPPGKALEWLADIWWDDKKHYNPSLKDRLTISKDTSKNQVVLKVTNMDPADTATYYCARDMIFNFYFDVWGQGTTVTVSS VL: DIQMTQSPSTLSASVGDRVTITCSASSRVGYMHWYQQKPGKAPKLLIYDTSKLASGVPSRFSGSGSGTEFTLTISSLQPDDFATYYCFQGSGYPFTFGGGTKVEIKR",
    "measured": 20
  }
]
